These measurements were taken from patent US6514946B1.

- protocol description: In vivo kinetics (absorption and excretion test) in mice
- reported conditions: male, Slc ddY, mouse, serum, sc, 5 mg/kg

compound	concentration at 2 h [ng/mL]
CC[C@H]1OC(=O)C[C@@H](O)[C@H](C)[C@@H](O[C@@H]2O[C@H](C)C(O)C(N(C)C)C2O)[C@@H](CCN2CC(C)CC(C)C2)C[C@@H](C)C(=O)/C=C/C(C)=C/[C@@H]1CO[C@@H]1OC(C)C(O)[C@@H](OC)C1OC (stereo partly shown) [Tilmicosin, tilmicosin]	50

###

- Test system: Proteus vulgaris OX19
- protocol description: Minimum inhibition concentration (MIC), agar double dilution method
- Type: cell-based
- reported conditions: Mueller hinton agar
measurement name: MIC (µg/mL)

compound	measurement name	unit symbol	result operator	endpoint value
CC[C@H]1OC(=O)C[C@@H](O)[C@H](C)[C@@H](O[C@@H]2O[C@H](C)C(O)C(N(C)C)C2O)[C@@H](CCN2CCCCCCC2)C[C@@H](C)C(=O)/C=C/C(C)=C/[C@@H]1CN1CCCCCCC1 (stereo partly shown) [Compound C-8]	MIC	µg/mL	=	6.25
CC[C@H]1OC(=O)C[C@@H](O)[C@H](C)[C@@H](O[C@@H]2O[C@H](C)C(O)C(N(C)C)C2O)[C@@H](CCN2CCCCCC2)C[C@@H](C)C(=O)/C=C/C(C)=C/[C@@H]1CN1CCCCCC1 (stereo partly shown) [Compound C-7]	MIC	µg/mL	=	3.13
CC[C@H]1OC(=O)C[C@@H](O)[C@H](C)[C@@H](O[C@@H]2O[C@H](C)C(O)C(N(C)C)C2O)[C@@H](CCN(Cc2ccccc2)Cc2ccccc2)C[C@@H](C)C(=O)/C=C/C(C)=C/[C@@H]1CN(Cc1ccccc1)Cc1ccccc1 (stereo partly shown) [Compound C-5]	MIC	µg/mL	>	100
CC[C@H]1OC(=O)C[C@@H](O)[C@H](C)[C@@H](O[C@@H]2O[C@H](C)C(O)C(N(C)C)C2O)[C@@H](CCN(C)C)C[C@@H](C)C(=O)/C=C/C(C)=C/[C@@H]1CN(C)C (stereo partly shown) [Compound C-1]	MIC	µg/mL	=	100

###

- Tested on: Past. multocida BSPO302 No. 6
- protocol description: Minimum inhibition concentration (MIC), agar double dilution method
- Assay type: cell-based, Pasteurella multocida
- reported conditions: Past. multocida BSPO302 No. 6, strain from a pig; BHI agar
measurement name: MIC

compound	endpoint value
CCCCCCN(CCCCCC)CC[C@H]1C[C@@H](C)C(=O)/C=C/C(C)=C/[C@H](CN(CCCCCC)CCCCCC)[C@@H](CC)OC(=O)C[C@@H](O)[C@H](C)[C@H]1O[C@@H]1O[C@H](C)C(O)C(N(C)C)C1O (stereo partly shown)	50 µg/mL
CC[C@H]1OC(=O)C[C@@H](O)[C@H](C)[C@@H](O[C@@H]2O[C@H](C)C(O)C(N(C)C)C2O)[C@@H](CCN(C)Cc2ccccc2)C[C@@H](C)C(=O)/C=C/C(C)=C/[C@@H]1CN(C)Cc1ccccc1 (stereo partly shown)	1.56 µg/mL
CC[C@H]1OC(=O)C[C@@H](O)[C@H](C)[C@@H](O[C@@H]2O[C@H](C)C(O)C(N(C)C)C2O)[C@@H](CC=O)C[C@@H](C)C(=O)/C=C/C(C)=C/[C@@H]1CN1CCCCC1 (stereo partly shown)	0.39 µg/mL
CC[C@H]1OC(=O)C[C@@H](O)[C@H](C)[C@@H](O[C@@H]2O[C@H](C)C(O)C(N(C)C)C2O)[C@@H](CCN2CCCC2)C[C@@H](C)C(=O)/C=C/C(C)=C/[C@@H]1CN1CCCC1 (stereo partly shown)	6.25 µg/mL

###

- protocol description: In vivo kinetics (absorption and excretion test) in mice
- reported conditions: male, Slc ddY, mouse, lung, sc, 5 mg/kg

molecule	concentration at 0.5 h, ng/g
CC[C@H]1OC(=O)C[C@@H](O)[C@H](C)[C@@H](O[C@@H]2O[C@H](C)C(O)C(N(C)C)C2O)[C@@H](CCN2CC(C)CC(C)C2)C[C@@H](C)C(=O)/C=C/C(C)=C/[C@@H]1CO[C@@H]1OC(C)C(O)[C@@H](OC)C1OC (stereo partly shown)	310

###

- protocol description: In vivo kinetics (absorption and excretion test) in mice
- reported conditions: male, Slc ddY, mouse, serum, sc, 5 mg/kg

compound	concentration at 1 h (ng/mL)
CC[C@H]1OC(=O)C[C@@H](O)[C@H](C)[C@@H](O[C@@H]2O[C@H](C)C(O)C(N(C)C)C2O)[C@@H](CCN2CC(C)CC(C)C2)C[C@@H](C)C(=O)/C=C/C(C)=C/[C@@H]1CO[C@@H]1OC(C)C(O)[C@@H](OC)C1OC (stereo partly shown)	60

###

- System: Past. multocida BSPO302 No. 6
- protocol description: Minimum inhibition concentration (MIC), agar double dilution method
- Format: cell-based, Pasteurella multocida
- reported conditions: Past. multocida BSPO302 No. 6, strain from a pig; BHI agar
Measured MIC, listed per entry for reference.
measurement name: MIC (µg/mL)

molecule	measurement name	result operator	endpoint value
CC[C@H]1OC(=O)C[C@@H](O)[C@H](C)[C@@H](O[C@@H]2O[C@H](C)C(O)C(N(C)C)C2O)[C@@H](CCN2CC(C)CC(C)C2)C[C@@H](C)C(=O)/C=C/C(C)=C/[C@@H]1CN1CC(C)CC(C)C1 (stereo partly shown)	MIC	=	0.78
CC[C@H]1OC(=O)C[C@@H](O)[C@H](C)[C@@H](O[C@@H]2O[C@H](C)C(O)C(N(C)C)C2O)[C@@H](CCN(Cc2ccccc2)Cc2ccccc2)C[C@@H](C)C(=O)/C=C/C(C)=C/[C@@H]1CN(Cc1ccccc1)Cc1ccccc1 (stereo partly shown)	MIC	>	100
CC[C@H]1OC(=O)C[C@@H](O)[C@H](C)[C@@H](O[C@@H]2O[C@H](C)C(O)C(N(C)C)C2O)[C@@H](CCN(C)C2CCCCC2)C[C@@H](C)C(=O)/C=C/C(C)=C/[C@@H]1CN(C)C1CCCCC1 (stereo partly shown)	MIC	=	1.56
CC[C@H]1OC(=O)C[C@@H](O)[C@H](C)[C@@H](O[C@@H]2O[C@H](C)C(O)C(N(C)C)C2O)[C@@H](CCN2CCCCCCC2)C[C@@H](C)C(=O)/C=C/C(C)=C/[C@@H]1CN1CCCCCCC1 (stereo partly shown)	MIC	=	0.39

###

The molecules listed here are annotated with their MIC.
- System: Past haemolytica BBPO102 N811
- protocol description: Minimum inhibition concentration (MIC), agar double dilution method
- Format: cell-based, Pasteurella haemolytica
- reported conditions: Past haemolytica BBPO102 N811, strain from cattle; BHI agar

molecule	MIC / µg/mL
CCCCCCN(CCCCCC)CC[C@H]1C[C@@H](C)C(=O)/C=C/C(C)=C/[C@H](CN(CCCCCC)CCCCCC)[C@@H](CC)OC(=O)C[C@@H](O)[C@H](C)[C@H]1O[C@@H]1O[C@H](C)C(O)C(N(C)C)C1O (stereo partly shown)	12.5
CC[C@H]1OC(=O)C[C@@H](O)[C@H](C)[C@@H](O[C@@H]2O[C@H](C)C(O)C(N(C)C)C2O)[C@@H](CC=O)C[C@@H](C)C(=O)/C=C/C(C)=C/[C@@H]1CN1CCCCC1 (stereo partly shown)	0.78
CC[C@H]1OC(=O)C[C@@H](O)[C@H](C)[C@@H](O[C@@H]2O[C@H](C)C(O)C(N(C)C)C2O)[C@@H](CCN2CCCCCC2)C[C@@H](C)C(=O)/C=C/C(C)=C/[C@@H]1CN1CCCCCC1 (stereo partly shown)	0.20
CC[C@H]1OC(=O)C[C@@H](O)[C@H](C)[C@@H](O[C@@H]2O[C@H](C)C(O)C(N(C)C)C2O)[C@@H](CCN2CC(C)CC(C)C2)C[C@@H](C)C(=O)/C=C/C(C)=C/[C@@H]1CN1CC(C)CC(C)C1 (stereo partly shown)	0.39
CC[C@H]1OC(=O)C[C@@H](O)[C@H](C)[C@@H](O[C@@H]2O[C@H](C)C(O)C(N(C)C)C2O)[C@@H](CCN(C)C2CCCCC2)C[C@@H](C)C(=O)/C=C/C(C)=C/[C@@H]1CN(C)C1CCCCC1 (stereo partly shown)	0.78
CC[C@H]1OC(=O)C[C@@H](O)[C@H](C)[C@@H](O[C@@H]2O[C@H](C)C(O)C(N(C)C)C2O)[C@@H](CCN2CCCC2)C[C@@H](C)C(=O)/C=C/C(C)=C/[C@@H]1CN1CCCC1 (stereo partly shown)	1.56
CC[C@H]1OC(=O)C[C@@H](O)[C@H](C)[C@@H](O[C@@H]2O[C@H](C)C(O)C(N(C)C)C2O)[C@@H](CCN2CCC(C)CC2)C[C@@H](C)C(=O)/C=C/C(C)=C/[C@@H]1CN1CCC(C)CC1 (stereo partly shown)	0.39
